target: H3255 (EGFR L858R) (Homo sapiens, UniProt P00533, L858R); test: EGFR target modulation in H3255 cell line (phospho-EGFR Y1173 ELISA)
Sequence (P00533 25-1210 L858R): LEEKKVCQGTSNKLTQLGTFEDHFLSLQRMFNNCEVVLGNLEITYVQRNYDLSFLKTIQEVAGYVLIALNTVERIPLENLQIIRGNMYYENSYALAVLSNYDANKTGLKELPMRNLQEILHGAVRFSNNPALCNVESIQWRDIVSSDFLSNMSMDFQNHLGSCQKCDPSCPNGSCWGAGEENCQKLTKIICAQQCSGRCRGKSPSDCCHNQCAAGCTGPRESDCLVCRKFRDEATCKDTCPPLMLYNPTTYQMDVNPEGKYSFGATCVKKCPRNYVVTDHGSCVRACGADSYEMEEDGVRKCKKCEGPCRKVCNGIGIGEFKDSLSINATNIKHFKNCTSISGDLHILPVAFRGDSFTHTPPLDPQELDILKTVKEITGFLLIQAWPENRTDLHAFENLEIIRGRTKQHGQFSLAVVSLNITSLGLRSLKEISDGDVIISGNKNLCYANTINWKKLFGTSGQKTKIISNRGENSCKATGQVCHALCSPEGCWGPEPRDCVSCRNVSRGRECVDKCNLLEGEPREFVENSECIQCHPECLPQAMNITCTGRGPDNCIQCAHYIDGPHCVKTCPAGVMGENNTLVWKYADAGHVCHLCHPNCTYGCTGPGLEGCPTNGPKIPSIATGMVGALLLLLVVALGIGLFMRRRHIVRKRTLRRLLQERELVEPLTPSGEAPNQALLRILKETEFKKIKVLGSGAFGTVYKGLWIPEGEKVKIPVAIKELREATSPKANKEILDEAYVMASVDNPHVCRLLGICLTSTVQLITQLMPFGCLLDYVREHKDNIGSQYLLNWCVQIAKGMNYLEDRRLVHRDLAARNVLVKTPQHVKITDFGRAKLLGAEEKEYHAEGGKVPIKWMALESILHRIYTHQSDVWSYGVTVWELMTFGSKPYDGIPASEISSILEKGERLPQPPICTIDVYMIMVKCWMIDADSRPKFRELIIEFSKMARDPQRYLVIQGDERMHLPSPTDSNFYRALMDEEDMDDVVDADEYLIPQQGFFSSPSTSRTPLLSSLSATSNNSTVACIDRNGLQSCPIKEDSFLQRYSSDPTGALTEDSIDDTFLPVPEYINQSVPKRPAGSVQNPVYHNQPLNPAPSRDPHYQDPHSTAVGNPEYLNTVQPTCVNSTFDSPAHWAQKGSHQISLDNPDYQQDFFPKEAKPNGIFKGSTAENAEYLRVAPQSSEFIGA
pIC50: −log10 of the molar value.
measurementKind: pIC50

Solved cases below.
[
  {
    "compound": "Cc1cc(C(=O)Nc2nc3cccc(Cl)c3n2[C@@H]2CCCCN(C(=O)/C=C/C(C)(C)N(C)C)C2)ccn1",
    "pIC50": 6.14
  },
  {
    "compound": "C=CC(=O)N1CCCC[C@@H](n2c(NC(=O)c3ccnnc3)nc3cccc(OC(C)C)c32)C1",
    "pIC50": 7.24
  },
  {
    "compound": "C=CC(=O)N1CCC[C@@H](n2c(NC(=O)c3cccc(C(F)(F)F)c3)nc3cc(COCC)ccc32)C1",
    "pIC50": 6.70
  },
  {
    "compound": "C=CC(=O)N1CCCC[C@@H](n2c(NC(=O)c3ccccc3)nc3cccc(CN(C)C)c32)C1",
    "pIC50": 8.40
  },
  {
    "compound": "Cc1cccc2nc(NC(=O)c3ccncc3)n(C3CCCCN(C(=O)/C=C/CN(C)C)C3)c12 (centres unmarked)",
    "pIC50": 8.30
  }
]

[A] COc1ccc2nc(NC(=O)c3ccnc(C)c3)n([C@@H]3CCCCN(C(=O)/C=C/CN(C)C)C3)c2c1Cl
[B] Cc1cc(C(=O)Nc2nc3cccc(Cl)c3n2[C@@H]2CCCCN(C(=O)C3=CCN(C)CC3)C2)ccn1
[C] C=CC(=O)N1CCCC[C@@H](n2c(NC(=O)c3ccnc(C)c3)nc3cc(CN4CCCCC4)cc(C)c32)C1
[D] C=CC(=O)N1CCC[C@@H](n2c(NC(=O)c3cccc(C(F)(F)F)c3)nc3cc(COCCOC)ccc32)C1
[E] C=CC(=O)N1CCCC[C@@H](n2c(NC(=O)c3ccnc(C)c3)nc3cc(CN4CCCC4)cc(C)c32)C1
QUERY: In this exercise, place the 5 compounds in ascending sequence of their recorded pIC50. Write the labels, ordered according to the request.
RESULT: B, D, A, E, C

[I] Cc1cc(C(=O)Nc2nc3cccc(Cl)c3n2[C@@H]2CCCCN(C(=O)/C=C/CNC(C)(C)C)C2)ccn1
[II] Cc1cccc2nc(NC(=O)c3cc(F)c(F)c(F)c3)n(C3CCCCN(C(=O)/C=C/CN(C)C)C3)c12 (centres unmarked)
QUERY: I or II : whose pIC50 is greater? Kindly give the label for the entry you pick.
RESULT: I

All values here come from patent US9440957B2.
